ASSAY EXPLANATION: A quantitative high throughput screen for small molecules that induce DNA re-replication in MCF 10a normal breast cells. Also: nearly all actives have a fitted effect of over 50% in size. Also: potency is read from the fitted curve at half-maximal effect.
MEASUREMENT PARAMETERS: MCF 10A DNA re-replication, Hoechst nuclear intensity, 48 h; series mostly up to 46.1 µM
Among all 350,000 compounds or so, about 9,900 (2.8%) were called active. Inconclusive results (about 15%) are left out. This is one part of a sample in which actives are shown more often than they occur.
EXPERIMENTAL ENDPOINT: Potency

The examples below pair each entry with its known result.
>  <COMPOUND>
Cc1ccc(NCc2n[nH]c(=S)n2-c2ccccc2)cc1Cl

>  <Potency>
inactive

$$$$
>  <COMPOUND>
OCC1(CCc2ccccc2)CCN(Cc2ccc3nsnc3c2)CC1

>  <Potency>
inactive

$$$$
>  <COMPOUND>
O=C(CC1Nc2ccccc2NC1=O)Nc1ccccc1 (stereo not given)

>  <Potency>
6.51 µM (active)

$$$$
>  <COMPOUND>
S=c1[nH]nc(CSCc2ccc(Cl)cc2Cl)n1-c1ccccc1

>  <Potency>
20.6 µM (active)

$$$$
>  <COMPOUND>
O=C(NNC(=O)c1ccc(-n2cncn2)c([N+](=O)[O-])c1)c1ccccc1

>  <Potency>
inactive

$$$$

Prompt: Find the measured Potency of Cc1ccc(-c2nn(-c3ccccc3)cc2C(=O)Nc2cccc(S(=O)(=O)N3CCOCC3)c2)cc1 and report it.
Response: inactive

Prompt: Find the measured Potency of O=C(CC1NCCNC1=O)Nc1ccc(Oc2ccccc2)cc1 (stereo not given) and report it.
Response: inactive

Prompt: Find the measured Potency of CC(C)c1ccc(S(=O)(=O)N2CCN(C(C)C(=O)NC3CCCC3)CC2)cc1 (stereo not given) and report it.
Response: inactive

Prompt: Find the measured Potency of Cc1ccc(-c2nn(-c3ccccc3)cc2/C=C/C(=O)Nc2cccc(S(N)(=O)=O)c2)cc1 and report it.
Response: 13 µM (active)

Prompt: Find the measured Potency of COc1ccc(C(=O)N(C)Cc2ccc(OC)c(OC)c2OC)cc1S(=O)(=O)N1CCOCC1 and report it.
Response: inactive

Source of measurements: PubChem BioAssay AID624296
